Protocol Description: Tissue distribution and oral exposure in ICR mice (LC-MS)
Assay type: in vivo
Condition Description: mouse, oral 5 mg/kg, portal vein plasma, read-out: AUC0-8h, Portal vein plasma

>  <Molecule>
COc1cccc2c1Sc1ccccc1C=C2OP(=O)(O)O[C@@H]1C[C@@H]2CC[C@@]1(C)C2(C)C [LSX472a]

>  <AUC(0-t), ng·h/mL>
8820

$$$$

----------
Target Or System: GPR84 (Homo sapiens)
Protocol Description: GPR84 antagonistic activity, calcium flux (Fluo-4) assay with agonist 6-OAU
Type: cell-based
Set-up: expressed in transfected cells; host or cells: HEK293
Description: The human GPR84 cell line was obtained by transfecting a HEK293 cell line with a plasmid encoding GPR84 and Gα16 proteins. Fluorescent dye Fluo-4AM was purchased from Invitrogen. Intracellular Ca^2+ ion is a very important second messenger of G protein-coupled receptor signaling pathway. […] Fluo-4 is a Ca^2+ ion-specific fluorescent probe that binds quantitatively to Ca^2+ ions and emits fluorescence. […]
pIC50: −log10 of the molar value.

>  <Molecule>
COc1cccc2c1Sc1ccccc1C=C2OP(=O)(O)Oc1ccccc1C(C)C

>  <pIC50>
5.00 to 6.00

$$$$
>  <Molecule>
COc1cccc2c1Sc1ccccc1C=C2OP(=O)(O)Oc1ccc(Br)cc1 [LSX491a]

>  <pIC50>
6.00 to 7.00

$$$$
>  <Molecule>
COc1cccc2c1Sc1ccccc1C=C2OP(=O)(O)Oc1ccc(F)cc1

>  <pIC50>
5.00 to 6.00

$$$$
>  <Molecule>
COc1cccc2c1Sc1ccccc1C=C2OP(=O)(O)Oc1cc(C)ccc1C(C)C [LSX468a]

>  <pIC50>
6.00 to 7.00

$$$$
>  <Molecule>
COc1cccc2c1Sc1ccccc1C=C2OP(=O)(O)OC1CCOC1 (stereo not drawn)

>  <pIC50>
5.00 to 6.00

$$$$
>  <Molecule>
COc1ccc(OP(=O)(O)OC2=Cc3ccccc3Sc3c(OC)cccc32)cc1

>  <pIC50>
6.00 to 7.00

$$$$
>  <Molecule>
COc1cccc2c1Sc1ccccc1C=C2OP(=O)(O)Oc1c(C(C)C)cccc1C(C)C

>  <pIC50>
5.00 to 6.00

$$$$
>  <Molecule>
CCCCCc1ccccc1OP(=O)(O)OC1=Cc2ccccc2Sc2c(OC)cccc21 [LSX482a]

>  <pIC50>
6.00 to 7.00

$$$$
>  <Molecule>
CCCCCc1ccc(OP(=O)(O)OC2=Cc3ccccc3Sc3c(OC)cccc32)cc1 [LSX482c]

>  <pIC50>
6.00 to 7.00

$$$$

----------
Target Or System: GPR84 (Homo sapiens, UniProt Q9NQS5)
Sequence (Q9NQS5 whole entry): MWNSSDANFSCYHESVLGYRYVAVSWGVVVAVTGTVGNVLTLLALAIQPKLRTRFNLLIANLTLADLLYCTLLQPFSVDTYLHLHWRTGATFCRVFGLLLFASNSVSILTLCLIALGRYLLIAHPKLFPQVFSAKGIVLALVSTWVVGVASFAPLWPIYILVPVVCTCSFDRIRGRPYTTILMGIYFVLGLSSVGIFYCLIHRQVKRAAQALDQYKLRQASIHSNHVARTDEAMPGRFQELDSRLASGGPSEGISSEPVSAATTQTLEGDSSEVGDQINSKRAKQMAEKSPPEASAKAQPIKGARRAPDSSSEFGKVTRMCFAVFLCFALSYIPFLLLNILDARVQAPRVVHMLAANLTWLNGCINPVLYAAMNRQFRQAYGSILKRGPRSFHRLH
Protocol Description: GPR84 antagonistic activity, calcium flux (Fluo-4) assay with agonist 6-OAU
Assay type: cell-based
Design: expressed in transfected cells; host or cells: HEK293
Listed molecules paired with reported IC50
Measurement Kind: IC50

>  <Molecule>
COc1cccc2c1Sc1ccccc1C=C2OP(=O)(O)Oc1cc(Cl)ccc1Cl

>  <Measurement Kind>
IC50

>  <Test Value>
100 to 1000 nM

$$$$
>  <Molecule>
COc1cccc2c1Sc1ccccc1C=C2OP(=O)(O)Oc1cccc2ccccc12 [LSX462a]

>  <Measurement Kind>
IC50

>  <Test Value>
100 to 1000 nM

$$$$
>  <Molecule>
COc1cccc2c1Sc1ccccc1C=C2OP(=O)(O)Oc1ccc2ccccc2c1 [LSX462b]

>  <Measurement Kind>
IC50

>  <Test Value>
100 to 1000 nM

$$$$
>  <Molecule>
COc1cccc2c1Sc1ccccc1C=C2OP(=O)(O)Oc1cc(C(C)C)ccc1C [LSX468b]

>  <Measurement Kind>
IC50

>  <Test Value>
100 to 1000 nM

$$$$
>  <Molecule>
COc1cccc2c1Sc1ccccc1C=C2OP(=O)(O)Oc1ccc(Oc2ccccc2)cc1

>  <Measurement Kind>
IC50

>  <Test Value>
1000 to 10000 nM

$$$$
>  <Molecule>
CCCCCc1cccc(OP(=O)(O)OC2=Cc3ccccc3Sc3c(OC)cccc32)c1 [LSX482b]

>  <Measurement Kind>
IC50

>  <Test Value>
< 100 nM

$$$$
>  <Molecule>
CCCCCCCCP(=O)(O)OC1=Cc2ccccc2Sc2c(OC)cccc21

>  <Measurement Kind>
IC50

>  <Test Value>
100 to 1000 nM

$$$$
>  <Molecule>
COc1cccc2c1Sc1ccccc1C=C2OP(=O)(O)Oc1ccc([N+](=O)[O-])cc1

>  <Measurement Kind>
IC50

>  <Test Value>
1000 to 10000 nM

$$$$
>  <Molecule>
CCCCCc1cc(CCCCC)cc(OP(=O)(O)OC2=Cc3ccccc3Sc3c(OC)cccc32)c1

>  <Measurement Kind>
IC50

>  <Test Value>
100 to 1000 nM

$$$$
